Data provenance: patent US20190119251A1

The compounds listed here are annotated with their IC50.
studySystem: human V1a receptor (Homo sapiens, UniProt P37288)
Sequence (P37288 whole entry): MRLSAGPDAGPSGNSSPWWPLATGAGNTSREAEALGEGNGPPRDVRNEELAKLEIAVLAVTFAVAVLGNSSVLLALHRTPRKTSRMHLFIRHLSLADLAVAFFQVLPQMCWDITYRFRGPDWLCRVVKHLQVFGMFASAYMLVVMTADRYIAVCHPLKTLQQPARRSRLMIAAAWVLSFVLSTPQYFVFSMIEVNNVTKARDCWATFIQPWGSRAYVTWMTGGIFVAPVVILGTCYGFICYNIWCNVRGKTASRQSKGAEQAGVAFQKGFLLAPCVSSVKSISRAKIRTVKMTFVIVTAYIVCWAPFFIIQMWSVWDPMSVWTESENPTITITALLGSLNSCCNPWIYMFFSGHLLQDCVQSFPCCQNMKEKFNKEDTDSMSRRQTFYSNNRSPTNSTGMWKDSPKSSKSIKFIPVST
measurementProtocol: Cellular in vitro assay for determining vasopressin receptor activity (V1a cell line, aequorin luminescence)
assaySetup: CHO cell line transfected with the human V1a receptor; agonist [Arg8]-vasopressin at EC50 concentration; read-out: IC50 hV1a
Note: unit nM is implicit; provide only the numeric part.

Recorded results for 5 compounds are shown here.
NC(=O)c1nc(Cn2nc(-c3ccc(Cl)cc3)n(C[C@H](O)C(F)(F)F)c2=O)nn1-c1cccnc1Cl :: 97.5
CSc1ccccc1-n1nc(Cn2nc(-c3ccc(Cl)cc3)n(C[C@H](O)C(F)(F)F)c2=O)nc1C(N)=O :: 0.54
NC(=O)c1nc(Cn2nc(-c3ccc(Cl)cc3)n(C[C@H](O)C(F)(F)F)c2=O)nn1-c1cccc(Cl)c1 :: 24
CC(C)c1ccccc1-n1nc(Cn2nc(-c3ccc(Cl)cc3)n(C[C@H](O)C(F)(F)F)c2=O)nc1C(N)=O :: 4.85
NC(=O)c1nc(Cn2nc(-c3ccc(Cl)cc3)n(C[C@H](O)C(F)(F)F)c2=O)nn1-c1ccccc1[N+](=O)[O-] :: 2.6

Using the record for CCc1ccccc1-n1nc(Cn2nc(-c3ccc(Cl)cc3)n(C[C@H](O)C(F)(F)F)c2=O)nc1C(N)=O , state its measured IC50.
0.75

Using the record for Cc1ccccc1-n1nc(Cn2nc(-c3ccc(Cl)cc3)n(C[C@H](O)C(F)(F)F)c2=O)nc1C(N)=O , state its measured IC50.
0.65

Using the record for NC(=O)c1nc(Cn2nc(-c3ccc(Cl)cc3)n(C[C@H](O)C(F)(F)F)c2=O)nn1-c1ccncc1F , state its measured IC50.
70

Using the record for NC(=O)c1nc(Cn2nc(-c3ccc(Cl)cc3)n(C[C@H](O)C(F)(F)F)c2=O)nn1-c1ccccc1Br , state its measured IC50.
0.45

----------
studySystem: human V2 receptor (Homo sapiens, UniProt P30518)
Sequence (P30518 whole entry): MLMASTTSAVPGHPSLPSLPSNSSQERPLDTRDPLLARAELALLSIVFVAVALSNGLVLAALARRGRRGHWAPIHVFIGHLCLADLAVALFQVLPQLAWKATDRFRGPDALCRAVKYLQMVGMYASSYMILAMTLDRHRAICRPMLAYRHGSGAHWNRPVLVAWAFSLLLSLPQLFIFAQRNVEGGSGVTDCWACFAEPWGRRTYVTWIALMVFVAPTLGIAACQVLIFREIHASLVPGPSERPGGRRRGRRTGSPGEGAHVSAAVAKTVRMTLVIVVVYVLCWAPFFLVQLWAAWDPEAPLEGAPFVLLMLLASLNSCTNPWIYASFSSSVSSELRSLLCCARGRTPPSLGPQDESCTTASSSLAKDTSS
measurementProtocol: Cellular in vitro assay for determining vasopressin receptor activity (V2 cell line, CRE-luciferase)
assaySetup: CHO cell line transfected with the human V2 receptor; agonist [Arg8]-vasopressin at EC50 concentration; 3 hours incubation; read-out: IC50 hV2
Field 'label' (enum: Y / N). Set to Y when IC50 is strictly under 60 nM; else N.

Some entries whose results are on file:
NC(=O)c1nc(Cn2nc(-c3ccc(Cl)cc3)n(C[C@H](O)C(F)(F)F)c2=O)nn1-c1ncccc1F [Example 5] :: Y
NC(=O)c1nc(Cn2nc(-c3ccc(Cl)cc3)n(C[C@H](O)C(F)(F)F)c2=O)nn1-c1cccc(F)c1 [Example 32] :: Y
CSc1ccccc1-n1nc(Cn2nc(-c3ccc(Cl)cc3)n(C[C@H](O)C(F)(F)F)c2=O)nc1C(N)=O [Example 18] :: Y

Hi there! Is IC50 for NC(=O)c1nc(Cn2nc(-c3ccc(Cl)cc3)n(C[C@H](O)C(F)(F)F)c2=O)nn1-c1ncccn1 [Example 16] below 60 nM, do you know?
N

Hi there! Is IC50 for NC(=O)c1nc(Cn2nc(-c3ccc(Cl)cc3)n(C[C@H](O)C(F)(F)F)c2=O)nn1-c1c(F)cccc1F [Example 25] below 60 nM, do you know?
Y

Hi there! Is IC50 for NC(=O)c1nc(Cn2nc(-c3ccc(Cl)cc3)n(C[C@H](O)C(F)(F)F)c2=O)nn1-c1cc(Cl)ccn1 [Example 15] below 60 nM, do you know?
Y

Hi there! Is IC50 for CCc1ccccc1-n1nc(Cn2nc(-c3ccc(Cl)cc3)n(C[C@H](O)C(F)(F)F)c2=O)nc1C(N)=O [Example 20] below 60 nM, do you know?
Y

Hi there! Is IC50 for NC(=O)c1nc(Cn2nc(-c3ccc(Cl)cc3)n(C[C@H](O)C(F)(F)F)c2=O)nn1-c1ccc(F)cc1Cl [Example 26] below 60 nM, do you know?
Y

Hi there! Is IC50 for Cc1ccnc(Cl)c1-n1nc(Cn2nc(-c3ccc(Cl)cc3)n(C[C@H](O)C(F)(F)F)c2=O)nc1C(N)=O [Example 12] below 60 nM, do you know?
N
